# tested.on: Mitogen-activated protein kinase kinase kinase 3 (Homo sapiens)
# protocol.notes: modulators of MEKK3-MEK5 PB1 binding, primary screen, biochemical, wildtype MEKK3, multiplex bead flow cytometry, Alexa488-MEK5 (AID 1529);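 note: Alexa488 bead fluorescence after subtracting the streptavidin-only scavenger bead signal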
# measurement.conditions: bead-based flow cytometry, Alexa488-MEK5 binding to MEKK3; at 10 µM; actives lie on both sides; 0 = blocked by unlabeled MEK5, 100 = vehicle
The campaign covered roughly 290,000 compounds. About 4,200 (1.4%) were called active. Many of the other results were omitted from the sample, so actives are more common in it than they were.
assay.readout: binding response (% of control)

I looked up COc1ccc(CCNS(=O)(=O)c2cccc([N+](=O)[O-])c2)cc1 and its binding response (% of control) for Mitogen-activated protein kinase kinase kinase 3 (Homo sapiens) was 111% (inactive)

I looked up O=C(Nc1cccc(NC(=O)c2cccc(F)c2)c1)c1ccccc1 and its binding response (% of control) for Mitogen-activated protein kinase kinase kinase 3 (Homo sapiens) was 101% (inactive)

I looked up COC(=O)C1=CN(Cc2ccc(OC)cc2)C=C(C(=O)OC)C1c1ccc(O)c(OC)c1 and its binding response (% of control) for Mitogen-activated protein kinase kinase kinase 3 (Homo sapiens) was 104% (inactive)

I looked up CC1(C)C2CC[C@]3(C)C(CC=C4[C@@H]5C[C@@](C)(CO)CC[C@]5(C(=O)O)CC[C@]43C)[C@@]2(C)CC[C@@H]1O (some centres undefined) and its binding response (% of control) for Mitogen-activated protein kinase kinase kinase 3 (Homo sapiens) was 105% (inactive)

I looked up COCc1ccc(C(=O)NC2CC(C)(C)Cc3c2cnn3-c2ccc(C)cc2)o1 (centres undefined) and its binding response (% of control) for Mitogen-activated protein kinase kinase kinase 3 (Homo sapiens) was 97% (inactive)

I looked up O=C(O)CC(Cc1ccccc1)C(=O)Nc1ccc([N+](=O)[O-])cc1 (centres undefined) and its binding response (% of control) for Mitogen-activated protein kinase kinase kinase 3 (Homo sapiens) was 128% (active)

I looked up CCOc1cc(C2C(C(=O)OC)=CN(C3CCCC3)C=C2C(=O)OC)cc(Br)c1O and its binding response (% of control) for Mitogen-activated protein kinase kinase kinase 3 (Homo sapiens) was 80% [inhibitor] (active)

I looked up O=C(CC(c1ccccc1)c1ccccc1)NCC(O)c1ccc([N+](=O)[O-])cc1 (centres undefined) and its binding response (% of control) for Mitogen-activated protein kinase kinase kinase 3 (Homo sapiens) was 101% (inactive)

I looked up CCNS(=O)(=O)c1ccc(CCC(=O)N2CCN(c3cc(Cl)ccc3C)CC2)cc1 and its binding response (% of control) for Mitogen-activated protein kinase kinase kinase 3 (Homo sapiens) was 103% (inactive)
